Listing: Activity of selected compounds
Target: Peroxisome proliferator-activated receptor alpha (Homo sapiens)
Assay: Activation of human PPARalpha ligand binding domain expressed in mouse Hepa 1-6 cells co-transfected with fused Gal4-DBD at 10 uM after 18 hrs by luciferase reporter gene assay relative to GW-7647
Format: cell-based
Just the number in %, nothing appended.

Below: 3 compounds and their reported Activity.
{"given.smiles": "CCn1c(SCC(=O)Nc2ccc(C(=O)O)cc2)nnc1-c1cc2cccc(OC)c2o1", "Activity / %": 15}
{"given.smiles": "O=C(O)c1ccc(COc2ccc3ccccc3c2/C=N/c2ccc(N3CCOCC3)cc2)cc1", "Activity / %": 15}
{"given.smiles": "CCOC(=O)C[C@H](C)NC(=O)c1csc(C2CCN(C(=O)c3c(F)cccc3Cl)CC2)n1", "Activity / %": 20}

Ask: Please list Activity recorded for the compound `CCOC(=O)N1CCc2c(sc(NC(=O)Cc3ccc(OC)cc3)c2C(=O)Nc2ccc(C(=O)OC)cc2)C1`
Result: 40

# credit: ChEMBL document CHEMBL1140169
